target-or-test-system: T1, Mical1 MO-CH-LIM (residues 1-781) (human, UniProt Q8TDZ2 1-781)
T1 sequence: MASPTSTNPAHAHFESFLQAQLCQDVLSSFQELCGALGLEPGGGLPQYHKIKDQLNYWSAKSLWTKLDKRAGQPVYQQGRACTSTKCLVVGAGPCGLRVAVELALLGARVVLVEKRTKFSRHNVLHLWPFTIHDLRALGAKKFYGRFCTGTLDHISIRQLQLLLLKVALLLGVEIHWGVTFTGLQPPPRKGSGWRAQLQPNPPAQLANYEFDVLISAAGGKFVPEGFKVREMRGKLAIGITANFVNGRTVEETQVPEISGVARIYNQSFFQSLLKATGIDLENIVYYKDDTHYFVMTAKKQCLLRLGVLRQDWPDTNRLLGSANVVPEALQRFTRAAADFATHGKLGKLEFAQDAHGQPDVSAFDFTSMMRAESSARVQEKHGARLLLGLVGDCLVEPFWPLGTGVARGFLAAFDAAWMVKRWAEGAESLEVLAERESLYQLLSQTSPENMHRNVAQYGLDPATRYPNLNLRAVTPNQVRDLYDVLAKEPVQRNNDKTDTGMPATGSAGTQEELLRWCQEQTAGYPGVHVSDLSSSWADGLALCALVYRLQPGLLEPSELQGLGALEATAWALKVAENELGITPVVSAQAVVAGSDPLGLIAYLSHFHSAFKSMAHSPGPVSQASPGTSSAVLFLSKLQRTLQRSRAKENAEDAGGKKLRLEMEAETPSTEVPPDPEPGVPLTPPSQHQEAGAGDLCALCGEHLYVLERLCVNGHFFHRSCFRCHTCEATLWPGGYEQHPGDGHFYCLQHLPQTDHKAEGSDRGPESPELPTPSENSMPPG
test-summary: ITC
reported-property: fold reduction in affinity against wild-type bMERB (fold)

binder: bMERB E939A (domain or fragment) KEEEMKRFCKAQTIQRRLNEIAAALRELEAEGVKLELALRRQSSSPEQQKKLWVGQLLQLVDKKNSLVAEEAELMITVQELNLEEKQWQLDQELRGYMNREENLKTAADRQAEDQVLRKLVDLVNQRDALIRFQEERRLSELALGTGAQG
operator: >
data-value: 5

binder: bMERB_(V985A) (domain or fragment) KEEEMKRFCKAQTIQRRLNEIEAALRELEAEGVKLELALRRQSSSPEQQKKLWVGQLLQLVDKKNSLAAEEAELMITVQELNLEEKQWQLDQELRGYMNREENLKTAADRQAEDQVLRKLVDLVNQRDALIRFQEERRLSELALGTGAQG
operator: =
data-value: 10
